Molecular target: C-C chemokine receptor type 4 (Homo sapiens)
Assay: Antagonist activity at human CCR4 receptor expressed in mouse B300-19 cells at 1 uM by [35S]GTPgammaS binding assay
Type: functional, cell-based
measured.metric: inhibition (%)

c1ccc2c(NC3CCCCCC3)nc(N3CCC(N4CCCC4)CC3)nc2c1    10
COc1cc2nc(N3CCC(N4CCCC4)CC3)nc(NC3CCCCCCC3)c2cc1OC    71
COc1cc2nc(N3CCC(C(N)=O)CC3)nc(NC3CCCCCC3)c2cc1OC    17
COc1cc2nc(N3CCC(N4CCCC4)CC3)nc(NC3CCC(C(C)(C)C)CC3)c2cc1OC (stereo not given)    11
COc1cc2nc(N3CCN(C(C)C)CC3)nc(NC3CCCCCC3)c2cc1OC    68
COc1cc2nc(N3CCC(N4CCCC4)CC3)nc(NCc3ccccc3)c2cc1OC    10
COc1cc2nc(N3CCC(N4CCCC4)CC3)nc(NC3CCCCC3)c2cc1OC    71
COc1cc2nc(N3CCC(C)CC3)nc(NC3CCCCCC3)c2cc1OC    12

I = COc1cc2nc(N3CCC(N(C)C4CCCC4)CC3)nc(NC3CCCCCC3)c2cc1OC
II = COc1cc2nc(N3CCC(N4CCCC4)CC3)nc(NC3CCCC3)c2cc1OC
III = COc1cc2nc(N3CCC(Cc4ccccc4)CC3)nc(NC3CCCCCC3)c2cc1OC
IV = COc1cc2nc(N3CCC(N(C)C)CC3)nc(NC3CCCCCC3)c2cc1OC
V = COc1cc2nc(N3CCC(N4CCCC4)CC3)nc(NC3CCN(Cc4ccccc4)CC3)c2cc1OC
[Q] Please rank these compounds by inhibition in descending order. # list labels per requested ordering
[A] IV, II, I, V, III
(IV: 65%, II: 18%, I: 10%, V: 4%, III: 1%)

###

Molecular target: C-C chemokine receptor type 4 (Homo sapiens, UniProt P51679)
Test: Displacement of [125I]CCl22 from human CCR4 receptor expressed in mouse B300-19 cells by SPA
Type: cell-based
pIC50: −log10 of the molar value.
measured.metric: pIC50

COc1cc2nc(N3CCN(C(C)C)CC3)nc(NC3CCCCCC3)c2cc1OC    6.18

A = COc1cc2nc(N3CCC(N(C)C)CC3)nc(NC3CCCCCC3)c2cc1OC
B = COc1cc2nc(N3CCC(N4CCCC4)CC3)nc(NC3CCCCCCC3)c2cc1OC
[Q] // compare: A vs B , metric pIC50, want the smaller Lab log: write the label of the selected item as the result.
[A] B

###

Target: C-C chemokine receptor type 4 (Homo sapiens) (UniProt P51679)
Experiment: Antagonist activity at human CCR4 receptor expressed in mouse B300-19 cells assessed as CCL22-induced chemotaxis by bioluminescent assay
Assay type: functional, cell-based
measured.metric: Activity (µM)

P = COc1cc2nc(N3CCC(N4CCCCC4)CC3)nc(NC3CCCCCC3)c2cc1OC
Q = COc1cc2nc(N3CCN(C4CCCCC4)CC3)nc(NC3CCCCCC3)c2cc1OC
[Q] Two entries are listed, P and Q . Which one carries the higher Activity? // output: label of the selected item
[A] Q

###

Molecular target: C-C chemokine receptor type 4 (Homo sapiens)
Experiment: Antagonist activity at human CCR4 receptor expressed in mouse B300-19 cells at 1 uM by [35S]GTPgammaS binding assay
Format: functional, cell-based
measured.metric: inhibition (%)

a = COc1cc2nc(C3CCN(C4CCCCC4)CC3)nc(NC3CCCCCC3)c2cc1OC
b = COc1cc2nc(N3CCC(N4CCCC4)CC3)nc(NC3CCCCNC3=O)c2cc1OC (configuration not stated)
[Q] Compare the recorded inhibition of a and b ; state which is larger. Lab note: record the label of whichever item you select.
[A] b

P = COc1ccc2c(NC3CCCCCC3)nc(N3CCC(N4CCCC4)CC3)nc2c1
Q = COc1cc2nc(NCCN3CCCCC3)nc(NC3CCCCCC3)c2cc1OC
[Q] # min-compare on inhibition between P and Q // respond with label for picked entry
[A] Q
(Q: 1%, P: 10%)

###

In this section we review reported inhibition values for a set of molecules.
Target: C-C chemokine receptor type 4 (Homo sapiens) (UniProt P51679)
Sequence (whole entry): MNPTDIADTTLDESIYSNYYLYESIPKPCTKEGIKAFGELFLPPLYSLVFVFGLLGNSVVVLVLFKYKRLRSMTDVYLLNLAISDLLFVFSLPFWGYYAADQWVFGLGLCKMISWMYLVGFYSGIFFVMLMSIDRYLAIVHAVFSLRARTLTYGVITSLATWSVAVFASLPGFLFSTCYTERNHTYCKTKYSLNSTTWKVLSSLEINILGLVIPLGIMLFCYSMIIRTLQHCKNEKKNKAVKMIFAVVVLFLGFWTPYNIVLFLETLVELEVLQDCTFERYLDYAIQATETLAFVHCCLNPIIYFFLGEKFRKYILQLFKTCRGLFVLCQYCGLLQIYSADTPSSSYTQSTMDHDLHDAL
Assay: Antagonist activity at human CCR4 receptor expressed in mouse B300-19 cells at 1 uM by [35S]GTPgammaS binding assay
Assay type: functional, cell-based

See these solved cases before continuing.
COc1cc2nc(N(C)CCc3ccccc3)nc(NC3CCCCCC3)c2cc1OC    < 0%
COc1cc2nc(NC(C)C)nc(NC3CCCCCC3)c2cc1OC    < 0%
COc1cc2nc(NCc3ccccc3)nc(NC3CCCCCC3)c2cc1OC    13%
COc1cc2nc(N3CCC(NC4CCCC4)CC3)nc(NC3CCCCCC3)c2cc1OC    < 0%
COc1cc2nc(N3CCOCC3)nc(NC3CCCCCC3)c2cc1OC    < 0%

[Q] I would be grateful if you could share the reported inhibition for COc1cc2nc(N3CCC(O)CC3)nc(NC3CCCCCC3)c2cc1OC .
[A] < 0%

[Q] Reported inhibition, molecule COc1cc2nc(N3CCC(N4CCCC4)CC3)nc(N3CCOCC3)c2cc1OC : ____
[A] < 0%

[Q] # lookup: inhibition of COc1cc2nc(N3CCC(N4CCCC4)CC3)nc(N(C)C)c2cc1OC
[A] < 0%

Data provenance is ChEMBL document CHEMBL1157487.
